Field: AUC(0-inf). Provide a value for each of the compounds that follow.
- experimental.details: AUC (0 to infinity) in ICR mouse at 2 mg/kg, iv measured up to 8 hrs by LC-MS/HPLC analysis
- Type: ADME, organism-based
- Parameters: dose 2 mg/kg, time infinity, route intravenous
- study.conditions: in vivo
A complete answer gives the number followed by the unit.

COc1ccc(/C=C/C(C)=O)cc1O = 0.1 µM·h

*Q* Dear colleague, I am looking for the recorded AUC(0-inf) of the following compound: `CC(=O)/C=C/c1ccc(O)c(O)c1`
*A* 0.039 µM·h

* * *

- experimental.details: Cmax in ICR mouse at 10 mg/kg, po administered via gavage measured up to 8 hrs by LC-MS/HPLC analysis
- Format: ADME, organism-based
- Design: dose 10 mg/kg, route oral
- study.conditions: in vivo
Field: Cmax. Provide a value for each of the compounds that follow.
Numbers only, in nM.

Hi! Can you tell me Cmax for each of these compounds?
1. CC(=O)/C=C/c1ccc(O)c(O)c1
2. COc1ccc(/C=C/C(C)=O)cc1O

*A*
200
160

* * *

Field: AUC(0-inf). Provide a value for each of the molecules that follow.
- experimental.details: AUC (0 to infinity) in ICR mouse at 10 mg/kg, po administered via gavage measured up to 8 hrs by LC-MS/HPLC analysis
- Type: ADME, organism-based
- Design: dose 10 mg/kg, route oral, time infinity
- study.conditions: in vivo
Give bare numbers, in µM·h.

COc1ccc(/C=C/C(C)=O)cc1O = 0.14

Let's switch to this molecule now.
*Q* Dear colleague, I am looking for the recorded AUC(0-inf) of the following molecule: `CC(=O)/C=C/c1ccc(O)c(O)c1`
*A* 0.14

* * *

Field: AUC(0-inf). Provide a value for each of the molecules that follow.
- experimental.details: AUC (0 to infinity) in ICR mouse at 50 mg/kg, po administered via gavage measured up to 8 hrs by LC-MS/HPLC analysis
- Format: ADME, organism-based
- Parameters: dose 50 mg/kg, time infinity, route oral
- study.conditions: in vivo
Answers are plain numbers, in µM·h.

Hi! Can you tell me AUC(0-inf) for each of these molecules?
1. COc1ccc(/C=C/C(C)=O)cc1O
2. CC(=O)/C=C/c1ccc(O)c(O)c1

*A*
[0.72, 0.66]

* * *

- experimental.details: Cmax in ICR mouse at 50 mg/kg, po administered via gavage measured up to 8 hrs by LC-MS/HPLC analysis
- Assay type: ADME, organism-based
- Design: dose 50 mg/kg, route oral
- study.conditions: in vivo
observation.type: Cmax (nM)
Answers are plain numbers, in nM.

CC(=O)/C=C/c1ccc(O)c(O)c1 = 1100

Let's switch to this molecule now.
*Q* Dear colleague, I am looking for the recorded Cmax of the following molecule: `COc1ccc(/C=C/C(C)=O)cc1O`
*A* 880

* * *

Field: Activity. Provide a value for each of the molecules that follow.
- Tested on: MC3T3-E1
- experimental.details: Osteo-blastogenic activity in mouse MC3T3-E1 cells assessed as stimulation of ALP activity at 10 uM supplemented with fresh medium every 3 to 4 days and measured after 14 days relative to control
- Type: functional
Give bare numbers, in %.

Example cases with answers are listed next.
CC(=O)/C=C/c1ccc(O)cc1 = 110
O=C(/C=C/c1ccc(O)c(O)c1)O[C@@H]1C[C@@](O)(C(=O)O)C[C@@H](O)[C@@H]1O = 120
COC(=O)c1ccc(O)c(O)c1 [METHYL PROTOCATECHUATE] = 110
O=C(O)Cc1ccccc1 [PHENYLACETIC ACID] = 120
O=C(O)/C=C/c1ccc(O)c(O)c1 [CAFFEIC ACID] = 120

Hi! Can you tell me Activity for each of these molecules?
1. CC(=O)/C=C/c1ccc(F)c(O)c1
2. CC(=O)/C=C/c1ccc(OCc2ccccc2)c(O)c1
3. COC(=O)Cc1ccc(O)c(O)c1
4. O=C(O)/C=C/c1ccccc1 [CINNAMIC ACID]
5. C=CCOc1ccc(/C=C/C(C)=O)cc1O
6. CC(=O)/C=C/c1ccc(O)c(O)c1
7. CC(=O)/C=C/c1ccc(O)c(F)c1
8. NC(=O)/C=C/c1ccc(F)c(O)c1

*A*
1. 100
2. 130
3. 100
4. 100
5. 120
6. 120
7. 100
8. 110

Hi! Can you tell me Activity for each of these molecules?
1. O=C(O)Cc1ccc(O)c(O)c1 [3,4-DIHYDROXYPHENYLACETIC ACID]
2. CC(=O)/C=C/c1ccc(C)c(O)c1
3. O=C(/C=C/c1ccc(O)c(O)c1)O[C@@H]1C[C@](O)(C(=O)O)C[C@@H](O)[C@H]1O [CHLOROGENIC ACID]
4. COc1cc(/C=C/C(C)=O)ccc1O [DEHYDROZINGERONE]

*A*
120
100
110
110

Hi! Can you tell me Activity for each of these molecules?
1. O=C(O)c1ccc(O)c(O)c1 [PROTOCATECHUIC ACID]
2. O=Cc1ccc(O)c(O)c1 [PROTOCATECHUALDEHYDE]

*A*
1. 100
2. 110

Hi! Can you tell me Activity for each of these molecules?
1. Cc1ccc(/C=C/C(N)=O)cc1O
2. COc1ccc(/C=C/C(C)=O)cc1O
3. CC(=O)/C=C/c1ccc(OC(C)C)c(O)c1

*A*
110
100
100

* * *

- assay.system: Isopentenyl-diphosphate Delta-isomerase 1 (Rattus norvegicus, UniProt O35760)
- Sequence (O35760 whole entry): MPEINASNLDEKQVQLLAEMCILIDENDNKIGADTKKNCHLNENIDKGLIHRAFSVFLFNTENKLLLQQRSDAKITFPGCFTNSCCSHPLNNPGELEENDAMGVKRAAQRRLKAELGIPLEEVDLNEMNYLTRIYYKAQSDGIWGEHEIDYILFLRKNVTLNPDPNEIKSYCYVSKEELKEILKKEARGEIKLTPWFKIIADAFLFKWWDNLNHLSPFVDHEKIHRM
- experimental.details: Inhibition of isopentenyl diphosphate isomerase in Sprague-Dawley rat liver S100 fraction preincubated for 10 min followed by MVA addition by HPLC analysis
observation.type: IC50

*Q* Dear colleague, I am looking for the recorded IC50 of the following compound: NCCCC(O)(P(=O)(O)O)P(=O)(O)O [ALENDRONATE SODIUM]
*A* 1700 nM

* * *

- experimental.details: Oral bioavailability in ICR mouse at 10 mg/kg administered via gavage measured up to 8 hrs by LC-MS/HPLC analysis
- Assay type: ADME, organism-based
- study.conditions: in vivo
Field: bioavailability. Provide a value for each of the compounds that follow.
Give bare numbers, in %.

COc1ccc(/C=C/C(C)=O)cc1O = 26

*Q* Dear colleague, I am looking for the recorded bioavailability of the following compound: `CC(=O)/C=C/c1ccc(O)c(O)c1`
*A* 66

* * *

- experimental.details: Terminal half-life in ICR mouse at 50 mg/kg, po administered via gavage measured up to 8 hrs by LC-MS/HPLC analysis
- Format: ADME, organism-based
- study.conditions: in vivo, read-out: beta t1/2 (converted)
observation.type: half-life (h)
Answers are plain numbers, in h.

CC(=O)/C=C/c1ccc(O)c(O)c1 = 3.1

Let's switch to this molecule now.
*Q* Dear colleague, I am looking for the recorded half-life of the following molecule: `COc1ccc(/C=C/C(C)=O)cc1O`
*A* 2.2

* * *

- experimental.details: Cytotoxicity against mouse NIH/3T3 cells after 24 hrs by MTT assay
- Assay type: cell-based, NIH3T3
- study.conditions: read-out: LD50
observation.type: CC50 at 24 h

*Q* Dear colleague, I am looking for the recorded CC50 at 24 h of the following compound: `CC(=O)/C=C/c1ccc(O)c(O)c1`
*A* > 5 mM

* * *

Field: CC50 at 24 h. Provide a value for each of the compounds that follow.
- experimental.details: Cytotoxicity against mouse RAW264.7 cells after 24 hrs by MTT assay
- Type: cell-based
- study.conditions: read-out: LD50

Example cases with answers are listed next.
COc1ccc(/C=C/C(C)=O)cc1O = > 5 mM
CC(=O)/C=C/c1ccc(O)c(O)c1 = 0.5 mM

Let's switch to this compound now.
*Q* Dear colleague, I am looking for the recorded CC50 at 24 h of the following compound: COc1cc(/C=C/C(C)=O)ccc1O [DEHYDROZINGERONE]
*A* > 5 mM
